The values you see were collected from patent US20250197406A1.

subject.of.test: recombinant human HPK1 (Homo sapiens (Human))
Sequence (Q92918 whole entry): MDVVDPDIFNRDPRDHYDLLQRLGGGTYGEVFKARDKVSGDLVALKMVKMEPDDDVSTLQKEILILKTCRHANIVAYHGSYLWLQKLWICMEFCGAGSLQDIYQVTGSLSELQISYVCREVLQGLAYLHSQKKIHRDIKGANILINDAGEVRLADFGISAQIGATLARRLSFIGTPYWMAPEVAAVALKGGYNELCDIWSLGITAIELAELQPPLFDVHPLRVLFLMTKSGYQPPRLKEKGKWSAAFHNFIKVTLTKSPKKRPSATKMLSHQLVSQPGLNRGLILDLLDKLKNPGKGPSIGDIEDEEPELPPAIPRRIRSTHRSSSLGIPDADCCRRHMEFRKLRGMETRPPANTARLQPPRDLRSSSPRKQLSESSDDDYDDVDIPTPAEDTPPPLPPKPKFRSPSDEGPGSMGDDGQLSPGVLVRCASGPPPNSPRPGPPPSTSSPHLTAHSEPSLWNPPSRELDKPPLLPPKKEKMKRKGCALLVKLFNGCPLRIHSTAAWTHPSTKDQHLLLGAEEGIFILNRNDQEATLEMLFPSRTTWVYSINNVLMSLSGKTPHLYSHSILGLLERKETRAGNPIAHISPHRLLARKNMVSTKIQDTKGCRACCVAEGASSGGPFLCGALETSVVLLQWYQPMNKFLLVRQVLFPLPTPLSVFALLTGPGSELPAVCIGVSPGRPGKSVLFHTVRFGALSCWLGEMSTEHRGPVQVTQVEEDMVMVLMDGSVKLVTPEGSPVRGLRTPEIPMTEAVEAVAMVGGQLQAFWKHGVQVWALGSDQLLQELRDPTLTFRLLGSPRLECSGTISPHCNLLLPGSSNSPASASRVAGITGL
measurement.protocol: HPK1 kinase assay (Promega ADP-Glo kinase assay)
conditions: In vitro activity against HPK1, 5 ng HPK1, MBP substrate, ATP 25 μM, 30° C. 40 minutes
Parameter IC50: see the listing below.

CC(N)c1c(F)c(C(F)(F)F)c(-c2cn3cc(NC(=O)[C@@H]4C[C@@H]4F)nc3cn2)c2cn[nH]c12 (some centres unmarked) [Example 45] = 501 to 1000 nM

*Q* Tell me the measured IC50 of CC(C)Nc1c(F)c(C(F)F)c(-c2cn3cc(NC(=O)[C@@H]4C[C@@H]4C#N)nc3cn2)c2cn[nH]c12 [Example 154] , please.
*A* < 100 nM

*Q* Query CC(C)Nc1c(F)c(Cl)c(-c2cn3cc(NC(=O)Cc4cccnc4)nc3cn2)c2cn[nH]c12 [Example 89] next
*A* < 100 nM

*Q* Query CC(C)Nc1c(F)c(Cl)c(-c2cn3cc(NC(=O)C4(N)CC4)nc3cn2)c2cn[nH]c12 [Example 78] next
*A* < 100 nM

*Q* Query CC(C)Nc1c(F)c(Cl)c(-c2cn3cc(NC(=O)c4ccccn4)nc3cn2)c2cn[nH]c12 [Example 58] next
*A* 101 to 500 nM

*Q* Query CC(=O)Nc1cn2cc(-c3c(Cl)c(F)c(C(C)N4CCC(O)C4)c4[nH]ncc34)ncc2n1 (centres unmarked) [Example 163] next
*A* 501 to 1000 nM
